These data points were gathered from patent US11590154B2.

Method description: 7-day mouse tolerability and PK study
Assay context: female, C57BL/6, mouse, plasma, po, 10 mg/kg, AUCtlast (clofazimine), Day 7; CFZ 10 mg/kg alone; oral once daily, mouse plasma
Measured property: AUC(0-t) (ng·h/mL)
Provide the reading as a plain figure in ng·h/mL.

# AUC(0-t) of CC(C)/N=c1\cc2n(-c3ccc(Cl)cc3)c3ccccc3nc-2cc1Nc1ccc(Cl)cc1 = 5340

====

Method description: 7-day mouse tolerability and PK study
Assay context: female, C57BL/6, mouse, plasma, po, 200 mg/kg, tmax (clarithromycin), Day 7; CLR 200 mg/kg alone; oral once daily, mouse plasma
Description: Sixty (60) female mice were tested, 12 per treatment groups: […]
Measured property: Tmax

# Tmax of CC[C@H]1OC(=O)[C@H](C)[C@@H](O[C@H]2C[C@@](C)(OC)[C@@H](O)[C@H](C)O2)[C@H](C)[C@@H](O[C@@H]2O[C@H](C)C[C@H](N(C)C)[C@H]2O)[C@](C)(OC)C[C@@H](C)C(=O)[C@H](C)[C@@H](O)[C@]1(C)O = 1 h

====

Method description: 7-day mouse tolerability and PK study
Assay context: female, C57BL/6, mouse, plasma, po, 100 mg/kg, Cmax (clarithromycin), Day 1; CLR 100 mg/kg alone; oral, mouse plasma
Measured property: Cmax (ng/mL)
Provide the reading as a plain figure in ng/mL.

# Cmax of CC[C@H]1OC(=O)[C@H](C)[C@@H](O[C@H]2C[C@@](C)(OC)[C@@H](O)[C@H](C)O2)[C@H](C)[C@@H](O[C@@H]2O[C@H](C)C[C@H](N(C)C)[C@H]2O)[C@](C)(OC)C[C@@H](C)C(=O)[C@H](C)[C@@H](O)[C@]1(C)O [Clarithromycin, clarithromycin] = 3400

====

Method description: 7-day mouse tolerability and PK study
Assay context: female, C57BL/6, mouse, plasma, po, 30 mg/kg, AUCtlast (clofazimine), Day 1; CFZ 30 mg/kg alone; oral, mouse plasma
Measured property: AUC(0-t)

# AUC(0-t) of CC(C)/N=c1\cc2n(-c3ccc(Cl)cc3)c3ccccc3nc-2cc1Nc1ccc(Cl)cc1 = 3690 ng·h/mL

====

Method description: 7-day mouse tolerability and PK study
Assay context: female, C57BL/6, mouse, plasma, po, 200 mg/kg, AUCtlast (clarithromycin), Day 1; CLR 200 mg/kg with RFB 60 mg/kg and CFZ 30 mg/kg; oral, mouse plasma
Measured property: AUC(0-t) (ng·h/mL)
Provide the reading as a plain figure in ng·h/mL.

# AUC(0-t) of CC[C@H]1OC(=O)[C@H](C)[C@@H](O[C@H]2C[C@@](C)(OC)[C@@H](O)[C@H](C)O2)[C@H](C)[C@@H](O[C@@H]2O[C@H](C)C[C@H](N(C)C)[C@H]2O)[C@](C)(OC)C[C@@H](C)C(=O)[C@H](C)[C@@H](O)[C@]1(C)O = 44200

====

Method description: 7-day mouse tolerability and PK study
Assay context: female, C57BL/6, mouse, in vivo, po, 20 mg/kg
Measured property: Tmax (h)
Provide the reading as a plain figure in h.

# Tmax of CO[C@H]1/C=C/O[C@@]2(C)Oc3c(C)c(O)c4c(c3C2=O)C2=NC3(CCN(CC(C)C)CC3)NC2=C(NC(=O)/C(C)=C\C=C\[C@H](C)[C@H](O)[C@@H](C)[C@@H](O)[C@@H](C)[C@H](OC(C)=O)[C@@H]1C)C4=O [Rifabutin, rifabutin] = 1

====

Method description: 7-day mouse tolerability and PK study
Assay context: female, C57BL/6, mouse, plasma, po, 30 mg/kg, Cmax (clofazimine), Day 7; CFZ 30 mg/kg with CLR 200 mg/kg and RFB 60 mg/kg; oral once daily, mouse plasma
Measured property: Cmax (ng/mL)
Provide the reading as a plain figure in ng/mL.

# Cmax of CC(C)/N=c1\cc2n(-c3ccc(Cl)cc3)c3ccccc3nc-2cc1Nc1ccc(Cl)cc1 [Clofazimine, clofazimine] = 957

====

Method description: 7-day mouse tolerability and PK study
Assay context: female, C57BL/6, mouse, plasma, po, 30 mg/kg, AUCtlast (clofazimine), Day 7; CFZ 30 mg/kg alone; oral once daily, mouse plasma
Measured property: AUC(0-t) (ng·h/mL)
Provide the reading as a plain figure in ng·h/mL.

# AUC(0-t) of CC(C)/N=c1\cc2n(-c3ccc(Cl)cc3)c3ccccc3nc-2cc1Nc1ccc(Cl)cc1 = 9870

====

Method description: 7-day mouse tolerability and PK study
Assay context: female, C57BL/6, mouse, plasma, po, 30 mg/kg, Cmax (clofazimine), Day 1; CFZ 30 mg/kg with CLR 200 mg/kg and RFB 60 mg/kg; oral, mouse plasma
Measured property: Cmax (ng/mL)
Provide the reading as a plain figure in ng/mL.

# Cmax of CC(C)/N=c1\cc2n(-c3ccc(Cl)cc3)c3ccccc3nc-2cc1Nc1ccc(Cl)cc1 = 152

====

Method description: 7-day mouse tolerability and PK study
Assay context: female, C57BL/6, mouse, in vivo, po, 60 mg/kg, AUCtlast (rifabutin), Day 1; RFB 60 mg/kg with CLR 200 mg/kg and CFZ 30 mg/kg; oral, mouse plasma
Measured property: AUC(0-t) (ng·h/mL)
Provide the reading as a plain figure in ng·h/mL.

# AUC(0-t) of CO[C@H]1/C=C/O[C@@]2(C)Oc3c(C)c(O)c4c(c3C2=O)C2=NC3(CCN(CC(C)C)CC3)NC2=C(NC(=O)/C(C)=C\C=C\[C@H](C)[C@H](O)[C@@H](C)[C@@H](O)[C@@H](C)[C@H](OC(C)=O)[C@@H]1C)C4=O = 60400

====

Method description: 7-day mouse tolerability and PK study
Assay context: female, C57BL/6, mouse, plasma, po, 100 mg/kg, Cmax (clarithromycin), Day 7; CLR 100 mg/kg alone; oral once daily, mouse plasma
Measured property: Cmax (ng/mL)
Provide the reading as a plain figure in ng/mL.

# Cmax of CC[C@H]1OC(=O)[C@H](C)[C@@H](O[C@H]2C[C@@](C)(OC)[C@@H](O)[C@H](C)O2)[C@H](C)[C@@H](O[C@@H]2O[C@H](C)C[C@H](N(C)C)[C@H]2O)[C@](C)(OC)C[C@@H](C)C(=O)[C@H](C)[C@@H](O)[C@]1(C)O [Clarithromycin, clarithromycin] = 6130

====

Method description: 7-day mouse tolerability and PK study
Assay context: female, C57BL/6, mouse, plasma, po, 200 mg/kg, Cmax (clarithromycin), Day 7; CLR 200 mg/kg with RFB 60 mg/kg and CFZ 30 mg/kg; oral once daily, mouse plasma
Measured property: Cmax (ng/mL)
Provide the reading as a plain figure in ng/mL.

# Cmax of CC[C@H]1OC(=O)[C@H](C)[C@@H](O[C@H]2C[C@@](C)(OC)[C@@H](O)[C@H](C)O2)[C@H](C)[C@@H](O[C@@H]2O[C@H](C)C[C@H](N(C)C)[C@H]2O)[C@](C)(OC)C[C@@H](C)C(=O)[C@H](C)[C@@H](O)[C@]1(C)O [Clarithromycin, clarithromycin] = 10100
